assay: Toxicity in po dosed female Beagle dog after 4 weeks; assay type: organism-based, Canis lupus familiaris; settings: in vivo
Measure: NOAEL at 672 h (mg/kg)
Note: unit mg/kg is implicit; provide only the numeric part.

Inquiry: Returns the measured NOAEL at 672 h for the input molecule. Input: "CSc1cc(C)nc(SC)c1NC(=O)CN1CCN(CCSc2nc3ccccc3[nH]2)CC1.Cl"
Reply text: 10

###

assay: AUC (0 to 8 hrs) in non-fasted Beagle dog at 10 mg/kg, po by LC/MS analysis; format: ADME, organism-based, Canis lupus familiaris; design: dose 10 mg/kg, time < 8 hr, route oral; conditions: in vivo
Measure: AUC(0-t) at 8 h (ng·h/mL)
Report the figure in ng·h/mL without appending any unit label.

Inquiry: Which AUC(0-t) at 8 h value belongs to "CSc1cc(C)nc(SC)c1NC(=O)CN1CCN(CCSc2nc3ccccc3[nH]2)CC1.Cl" ?
Reply text: 3580
